- Test: Pharmacokinetic evaluation in mice (IV and PO)
- Assay type: in vivo, male CD-1 mice
- Condition Info: male, CD-1 nude, mouse, plasma, IV 2 mg/kg, read-out: Vdss (steady-state apparent volume of distribution)
Recorded measurements of Vd, one per entry

{"Compound Structure String": "COc1nc(OC)c(F)c(Cc2c[nH]c3ncc(-c4cnn(CCO)c4)cc23)c1F", "Vd [L/kg]": 2.1}
{"Compound Structure String": "COc1cc(OC)c(F)c(Cc2c[nH]c3ncc(-c4cnn(CCO)c4)cc23)c1F", "Vd [L/kg]": 1.7}

###

pIC50: −log10 of the molar value. Where a name gives a salt, the structure may show the parent alone.
This section lists pIC50 readings for human FGFR1 (Homo sapiens, UniProt P11362).
Readout Label: pIC50

{"Compound": "CCN1CCC(C#N)(c2cccc(-c3cnc4[nH]cc(Cc5c(F)c(OC)cc(OC)c5F)c4c3)c2)CC1 [Trifluoroacetate salt of embodiment 60]", "Readout Label": "pIC50", "Observed Measurement": 8.66}
{"Compound": "CCN1CCC(n2cc(-c3cnc4[nH]cc(Cc5c(F)c(OC)cc(OC)c5F)c4n3)cn2)CC1 [Trifluoroacetate salt of embodiment 6]", "Readout Label": "pIC50", "Observed Measurement": 10.40}
{"Compound": "COc1ccc(F)c(Cc2c[nH]c3ncc(-c4cnn(C5CCNCC5)c4)cc23)c1F [Trifluoroacetate salt of embodiment 19]", "Readout Label": "pIC50", "Observed Measurement": 7.86}
{"Compound": "CCN(CC)CCn1cc(-c2cnc3[nH]cc(Cc4c(F)c(OC)cc(OC)c4F)c3c2)cn1 [Hydrochloride of embodiment 69]", "Readout Label": "pIC50", "Observed Measurement": 9.22}
{"Compound": "COc1cc(OC)c(F)c(Cc2c[nH]c3ncc(-c4cnn(CCO)c4)cc23)c1F [Hydrochloride of embodiment 46]", "Readout Label": "pIC50", "Observed Measurement": 9.38}
{"Compound": "COc1cc(OC)c(F)c(Cc2c[nH]c3ncc(-c4cnn(C5CCN(C6COC6)CC5)c4)cc23)c1F [Trifluoroacetate salt of embodiment 15]", "Readout Label": "pIC50", "Observed Measurement": 8.71}

###

- Target: human FGFR1 (Homo sapiens, UniProt P11362)
- Construct: purchased Invitrogen PV3146
- Sequence (P11362 22-822): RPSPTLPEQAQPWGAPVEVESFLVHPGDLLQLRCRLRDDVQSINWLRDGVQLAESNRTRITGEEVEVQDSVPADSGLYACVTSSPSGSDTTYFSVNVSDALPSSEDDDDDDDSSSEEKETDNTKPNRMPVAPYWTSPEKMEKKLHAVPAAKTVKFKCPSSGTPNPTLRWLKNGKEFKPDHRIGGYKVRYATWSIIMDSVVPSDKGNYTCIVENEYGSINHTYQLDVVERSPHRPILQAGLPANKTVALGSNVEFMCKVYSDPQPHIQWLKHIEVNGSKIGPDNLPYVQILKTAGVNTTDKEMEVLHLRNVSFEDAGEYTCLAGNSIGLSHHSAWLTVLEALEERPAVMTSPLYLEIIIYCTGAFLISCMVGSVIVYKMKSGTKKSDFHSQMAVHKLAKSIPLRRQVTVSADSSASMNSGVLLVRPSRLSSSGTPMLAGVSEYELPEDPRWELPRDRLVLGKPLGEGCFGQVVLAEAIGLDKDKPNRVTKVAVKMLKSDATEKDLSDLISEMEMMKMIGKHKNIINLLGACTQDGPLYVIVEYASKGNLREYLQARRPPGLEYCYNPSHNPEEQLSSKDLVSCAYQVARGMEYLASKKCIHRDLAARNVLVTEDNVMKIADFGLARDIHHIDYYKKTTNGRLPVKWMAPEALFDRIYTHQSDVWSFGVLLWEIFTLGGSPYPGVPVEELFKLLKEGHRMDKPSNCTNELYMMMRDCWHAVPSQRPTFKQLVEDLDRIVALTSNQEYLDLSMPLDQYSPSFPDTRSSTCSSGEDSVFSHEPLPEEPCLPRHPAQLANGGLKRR
- Test: 33P isotope-labeled kinase activity test, FGFR1
- Assay type: biochemical
- Condition Info: ATP 5 μM
pIC50: −log10 of the molar value. Where a name gives a salt, the structure may show the parent alone.
Readout Label: pIC50

{"Molecule": "CCN1CCC(C#N)(c2ccc(-c3cnc4[nH]cc(Cc5c(F)c(OC)cc(OC)c5F)c4c3)cc2)CC1 [Trifluoroacetate salt of embodiment 58]", "Observed Measurement": 8.92}
{"Molecule": "COc1cc(OC)c(F)c(Cc2c[nH]c3ncc(-c4cnn(CC(C)(C)O)c4)cc23)c1F [Trifluoroacetate salt of embodiment 66]", "Observed Measurement": 9.30}
{"Molecule": "COc1cc(OC)c(F)c(Cc2c[nH]c3ncc(-c4cnc5c(c4)CNCC5)cc23)c1F [Trifluoroacetate salt of embodiment 52]", "Observed Measurement": 10.22}

###

pIC50: −log10 of the molar value. Counter-ions that a name gives are not always drawn.
This section lists pIC50 readings for human FGFR4 (Homo sapiens).

{"Molecule": "CCN1CCc2ncc(-c3cnc4[nH]cc(Cc5c(F)c(OC)cc(OC)c5F)c4c3)cc2C1 [Trifluoroacetate salt of embodiment 53]", "pIC50": 8.54}
{"Molecule": "COc1cc(OC)c(F)c(Cc2c[nH]c3ncc(-c4cnn(C5CN(C(C)=O)C5)c4)cc23)c1F [Trifluoroacetate salt of embodiment 26]", "pIC50": 7.45}
{"Molecule": "COc1cc(OC)c(F)c(Cc2c[nH]c3ncc(-c4cncc(C5(C#N)CCNCC5)c4)cc23)c1F [Trifluoroacetate salt of embodiment 61]", "pIC50": 8.35}
{"Molecule": "COc1cc(OC)c(F)c(Cc2c[nH]c3ncc(-c4ccc(C5(C#N)CCNCC5)cc4)cc23)c1F [Hydrochloride of embodiment 57]", "pIC50": 7.67}
{"Molecule": "CCN1Cc2cc(-c3cnc4[nH]cc(Cc5c(F)c(OC)cc(OC)c5F)c4c3)cnc2C1 [Trifluoroacetate salt of embodiment 51]", "pIC50": 8.52}
{"Molecule": "COc1cc(OC)c(F)c(Cc2c[nH]c3ncc(-c4cnn(S(C)(=O)=O)c4)cc23)c1F [Trifluoroacetate salt of embodiment 30]", "pIC50": 7.55}
{"Molecule": "CCN1CCC(n2cc(-c3cnc4[nH]nc(Cc5c(F)c(OC)cc(OC)c5F)c4c3)cn2)CC1 [Hydrochloride of embodiment 3]", "pIC50": 6.83}
{"Molecule": "COc1cc(OC)c(F)c(Cc2c[nH]c3ncc(-c4cn(C5CCN(C)CC5)nc4C)cc23)c1F [Trifluoroacetate salt of embodiment 35]", "pIC50": 7.63}
{"Molecule": "CCN1CCC(n2cc(-c3cnc4[nH]c(C)c(Cc5c(F)c(OC)cc(OC)c5F)c4c3)cn2)CC1 [Hydrochloride of embodiment 74]", "pIC50": 7.25}
{"Molecule": "COc1cc(OC)c(F)c(Cc2c[nH]c3ncc(-c4cnn(C5CCN(C6COC6)CC5)c4)cc23)c1F [Trifluoroacetate salt of embodiment 15]", "pIC50": 7.59}
{"Molecule": "COc1cc(OC)c(F)c(Cc2c[nH]c3ncc(-c4ccc5c(c4)NC(=O)C54CCNCC4)cc23)c1F [Trifluoroacetate salt of embodiment 54]", "pIC50": 7.23}
{"Molecule": "COc1cc(OC)c(F)c(Cc2c[nH]c3ncc(-c4cnn(CCN(C)C)c4)cc23)c1F [Hydrochloride of embodiment 28]", "pIC50": 7.69}
{"Molecule": "COCCNCCn1cc(-c2cnc3[nH]cc(Cc4c(F)c(OC)cc(OC)c4F)c3c2)cn1 [Hydrochloride of embodiment 70]", "pIC50": 8.30}
